This collection of values is drawn from PubChem BioAssay (NCI).

Tested on: SW-620 colon
ASSAY_NAME: NCI-60 one-dose screen, 48 h (100 = growth as untreated, 0 = no growth, -100 = all killed)
CONDITIONS: 10 µM unless noted
About 83,000 compounds went through this panel and 20% of them were active in at least one assay; those are over-represented in the sample as a whole.
Hi! Just check whether growth is below 60%. Below gives yes (1), equal or above gives no (0).

Here's what some known entries look like.
{"columns": ["COMPOUND", "GROUP_LABEL"],
 "data": [
  ["CCOC(=O)c1cc(C(=O)c2cc(OC)c(OC)c(OC)c2)n2ncccc12", "yes (1)"],
  ["Cc1cc(=O)n(C(=O)Nc2ccccc2Cl)c2cc(O)ccc12", "no (0)"],
  ["CC(=O)Oc1ccc(N2C(=O)C(Cl)=C(Nc3cccc(C(F)(F)F)c3)C2=O)cc1", "no (0)"],
  ["CCCCCCCCCCCCCCCCCCOc1ccccc1CC(=O)OCC[N+](C)(C)C", "yes (1)"],
  ["Cc1cccc(CNc2c3ccccc3nc3ccccc23)c1", "yes (1)"],
  ["N#Cc1c(-c2ccccc2)cc(-c2ccccc2)n(CCCC(=O)Nc2ccccc2N)c1=O", "yes (1)"],
  ["CC(C)c1ccc(-n2c(=S)[nH]c3sc4cc(O)ccc4c3c2=O)cc1", "no (0)"],
  ["Cn1ccc(=O)c(C(=O)Nc2nsc3ccc([N+](=O)[O-])cc23)c1", "yes (1)"]
]}

Data request: Record CCC(C(=O)[C@@H](C)[C@@H](O)[C@H](C)[C@@H]1O[C@@H]([C@@H](CC)C(=O)ONC(=O)c2ccccc2)CC[C@@H]1C)[C@H]1O[C@]2(C=CC(=O)[C@]3(CC[C@@](C)([C@H]4CC[C@](O)(CC)[C@H](C)O4)O3)O2)[C@H](C)C[C@@H]1C (stereo not given in full) : is its growth strictly below 60%?
Data returned: yes (1)

Data request: Record "Nc1nc(-c2ccc(Cl)cc2)nc2c1sc(=S)n2-c1ccccc1" : is its growth strictly below 60%?
Data returned: yes (1)
